Target: UniProtKB Q8TDV5
Sequence (Q8TDV5 whole entry): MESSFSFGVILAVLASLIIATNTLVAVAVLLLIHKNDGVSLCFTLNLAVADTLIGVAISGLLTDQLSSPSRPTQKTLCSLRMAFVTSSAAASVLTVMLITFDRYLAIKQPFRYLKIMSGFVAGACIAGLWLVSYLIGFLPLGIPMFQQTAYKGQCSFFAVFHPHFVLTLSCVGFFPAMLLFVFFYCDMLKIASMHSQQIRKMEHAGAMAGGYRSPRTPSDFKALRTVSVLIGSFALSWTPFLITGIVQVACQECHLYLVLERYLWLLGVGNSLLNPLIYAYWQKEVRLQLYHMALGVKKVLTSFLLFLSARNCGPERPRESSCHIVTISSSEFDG
Assay: Agonist activity at human GPR119 incubated for 2 hrs by luciferase reporter gene assay
Measurement type: EC50 (nM)
State just the number; it will be interpreted in nM.

Output measured EC50 for this item: CCc1cnc(N2CCC(C(C)COC(=O)N3CCc4cc(S(C)(=O)=O)ccc43)CC2)nc1 (stereo unspecified)
3.9
